Where these numbers come from: paper PMC12926044

molecular target: fascin-1 (Homo sapiens); construct: gene FSCN1; recombinant, E. coli BL21(DE3), pGEX-5X-2 GST fusion, GST cut off with thrombin; monomer; experiment: isothermal titration calorimetry; type: binding; details: read-out: Kd
Reported endpoint: Kd

Reported Kd, molecule Cc1ccc2nc(-c3ccc(NCCOCCOCCOCCOCCOCCO)cc3)sc2c1 : ____
~5 µM
